- target-of-assay: Muscarinic acetylcholine receptor
- test-details: Agonist activity at muscarinic acetylcholine receptor in isolated guinea pig ileum.
- Type: functional, tissue-based, Cavia porcellus
# EC50 values compiled below

Below are worked cases with known answers.
compound | EC50
CCCc1nc(C2=CCCN(C)C2)no1.O=C(O)C(=O)O | > 30 µM
Cc1nc(C2=CCCN(C)C2)no1.O=C(O)C(=O)O | > 30 µM

INPUT: So what's the measured EC50 for this one? CCCCCCCCc1noc(C2=CCCN(C)C2)n1.O=C(O)C(=O)O
OUTPUT: 1.46 µM

INPUT: // query: CN1CCC=C(c2nc(C(C)(C)C)no2)C1.O=C(O)C(=O)O
OUTPUT: > 30 µM

INPUT: // query: CN1CCC=C(c2nc(C3CC3)no2)C1.O=C(O)C(=O)O
OUTPUT: > 30 µM
